- Measured on: T1, mouse CRFR2β (mouse), Q60748
- T1 chain: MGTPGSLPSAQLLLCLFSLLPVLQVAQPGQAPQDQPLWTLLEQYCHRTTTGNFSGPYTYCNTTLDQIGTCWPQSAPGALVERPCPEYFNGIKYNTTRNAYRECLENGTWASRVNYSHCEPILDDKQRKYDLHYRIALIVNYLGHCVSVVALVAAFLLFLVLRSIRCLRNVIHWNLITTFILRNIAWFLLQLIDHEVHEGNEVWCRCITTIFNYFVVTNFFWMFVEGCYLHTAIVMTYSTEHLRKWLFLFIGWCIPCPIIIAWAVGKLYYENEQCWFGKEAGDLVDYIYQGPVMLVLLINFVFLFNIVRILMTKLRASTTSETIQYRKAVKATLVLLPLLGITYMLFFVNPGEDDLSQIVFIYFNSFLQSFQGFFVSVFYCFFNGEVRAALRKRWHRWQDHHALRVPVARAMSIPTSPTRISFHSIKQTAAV
- Assay summary: competition binding
- Cond: modification not given

>  <Binder>
SQEPPISLDLTFHLLREVLEMTKADQLAQQAHSNRKLLDIA [ovine corticotropin-releasing factor]

>  <Unit>
nM

>  <IC50>
160

$$$$

Source of measurements: patent US20080221021A1
